target: human ACC2 (Homo sapiens (Human), UniProt O00763); experiment: ACC2 assay (spectrophotometric 384 well assay, NADH-linked coupled lactate dehydrogenase/pyruvate kinase); assay type: biochemical; conditions: hACC2 construct lacking 128 N-terminal amino acids; 25° C., 340 nm, 15 minutes
Sequence (O00763 129-2458): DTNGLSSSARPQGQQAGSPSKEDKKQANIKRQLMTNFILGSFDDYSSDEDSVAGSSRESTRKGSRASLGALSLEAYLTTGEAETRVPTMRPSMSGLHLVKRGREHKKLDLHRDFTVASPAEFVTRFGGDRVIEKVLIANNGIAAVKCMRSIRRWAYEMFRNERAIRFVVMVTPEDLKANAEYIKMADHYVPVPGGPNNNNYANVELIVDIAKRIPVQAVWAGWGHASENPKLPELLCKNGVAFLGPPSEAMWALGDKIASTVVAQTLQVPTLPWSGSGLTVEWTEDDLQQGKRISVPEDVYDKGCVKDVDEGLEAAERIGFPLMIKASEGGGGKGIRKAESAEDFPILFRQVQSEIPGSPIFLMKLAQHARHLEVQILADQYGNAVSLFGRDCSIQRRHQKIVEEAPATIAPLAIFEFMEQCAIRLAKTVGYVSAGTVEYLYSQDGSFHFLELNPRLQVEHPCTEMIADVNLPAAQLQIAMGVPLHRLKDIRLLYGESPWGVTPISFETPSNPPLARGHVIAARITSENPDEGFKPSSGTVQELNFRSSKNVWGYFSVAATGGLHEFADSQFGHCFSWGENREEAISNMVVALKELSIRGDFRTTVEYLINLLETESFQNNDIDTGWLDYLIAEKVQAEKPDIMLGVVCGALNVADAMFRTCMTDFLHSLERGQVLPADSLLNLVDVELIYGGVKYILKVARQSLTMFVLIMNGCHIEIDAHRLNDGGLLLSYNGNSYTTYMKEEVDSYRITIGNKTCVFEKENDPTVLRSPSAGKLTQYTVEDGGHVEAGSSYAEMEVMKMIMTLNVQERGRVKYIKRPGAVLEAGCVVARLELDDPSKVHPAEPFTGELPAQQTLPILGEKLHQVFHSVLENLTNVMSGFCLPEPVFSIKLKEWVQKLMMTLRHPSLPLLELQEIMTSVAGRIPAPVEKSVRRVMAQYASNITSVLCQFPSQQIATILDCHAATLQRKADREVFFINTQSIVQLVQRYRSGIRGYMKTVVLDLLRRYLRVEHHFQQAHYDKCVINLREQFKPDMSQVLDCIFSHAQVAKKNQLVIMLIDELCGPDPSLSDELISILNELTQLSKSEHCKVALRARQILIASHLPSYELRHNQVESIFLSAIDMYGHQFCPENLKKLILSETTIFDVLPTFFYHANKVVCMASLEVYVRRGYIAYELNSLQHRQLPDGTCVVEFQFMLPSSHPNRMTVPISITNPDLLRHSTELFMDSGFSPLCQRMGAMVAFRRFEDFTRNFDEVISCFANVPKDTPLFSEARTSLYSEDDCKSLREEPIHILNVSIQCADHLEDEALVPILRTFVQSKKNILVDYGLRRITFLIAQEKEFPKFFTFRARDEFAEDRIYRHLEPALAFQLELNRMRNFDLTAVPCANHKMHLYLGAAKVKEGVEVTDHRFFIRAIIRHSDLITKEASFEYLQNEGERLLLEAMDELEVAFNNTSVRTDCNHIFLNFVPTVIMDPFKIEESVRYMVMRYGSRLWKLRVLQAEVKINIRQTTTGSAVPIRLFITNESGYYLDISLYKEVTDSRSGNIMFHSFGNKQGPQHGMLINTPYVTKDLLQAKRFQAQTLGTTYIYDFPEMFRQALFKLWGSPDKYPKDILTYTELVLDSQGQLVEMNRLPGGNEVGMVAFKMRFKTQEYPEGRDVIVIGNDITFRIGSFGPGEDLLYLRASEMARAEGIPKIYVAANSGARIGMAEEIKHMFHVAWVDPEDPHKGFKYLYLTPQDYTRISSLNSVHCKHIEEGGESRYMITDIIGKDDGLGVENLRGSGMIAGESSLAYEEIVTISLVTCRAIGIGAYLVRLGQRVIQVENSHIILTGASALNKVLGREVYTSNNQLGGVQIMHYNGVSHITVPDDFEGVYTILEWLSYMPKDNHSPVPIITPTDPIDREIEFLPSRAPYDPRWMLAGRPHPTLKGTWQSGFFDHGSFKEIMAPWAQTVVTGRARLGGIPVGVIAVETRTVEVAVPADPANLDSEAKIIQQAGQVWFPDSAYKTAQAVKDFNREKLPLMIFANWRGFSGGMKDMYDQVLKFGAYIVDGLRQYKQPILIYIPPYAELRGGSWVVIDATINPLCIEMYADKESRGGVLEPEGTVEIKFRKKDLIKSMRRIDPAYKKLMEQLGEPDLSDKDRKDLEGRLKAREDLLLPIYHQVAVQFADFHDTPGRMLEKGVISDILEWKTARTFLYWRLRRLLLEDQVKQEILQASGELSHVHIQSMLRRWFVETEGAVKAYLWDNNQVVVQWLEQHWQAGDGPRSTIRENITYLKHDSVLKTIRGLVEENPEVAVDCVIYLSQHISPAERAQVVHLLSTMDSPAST
pIC50: −log10 of the molar value.
parameter_measured: pIC50

These recorded examples may help you get a feel for the data.
get_value(item= CC(=O)N[C@@H](C)c1ccc(OC2CN(c3ccc4c(c3)OCCO4)C2)cc1 [Example 1.24] , readout=pIC50) returns 6.92

get_value(item= CC(=O)N[C@@H](C)c1ccc(OC2CN(c3nc(-c4ccccc4)no3)C2)cc1 [Example 4.41] , readout=pIC50) returns 5.46

(I) CC(=O)NC(C)c1ccc(OC2CN(c3ccc(OC4CCC4)cc3)C2)cc1 (stereo not shown) [Example 1.4]
(II) CCCOc1ccc(N2CC(Oc3ccc([C@H](C)NC(=O)c4cncs4)cc3)C2)c(OC)c1 [Example 8.4]
Look at I and II . Which one has the lower recorded pIC50 number? Lab note: record the label of whichever item you select. II

Values from patent US8530460B2
